- ASSAYED TARGET: IFN-αWA (human, UniProt P05015 24-189)
- ASSAY SUMMARY: cell-based or functional assay
ASSAY ENDPOINT: IC50 (pM), ISRE assay
Field format: number, assumed pM, no unit text.

Reference set (2 entries):
Need IC50 (pM), ISRE assay, item IFWM3304 (antibody, IgG1, V domains shown) VH: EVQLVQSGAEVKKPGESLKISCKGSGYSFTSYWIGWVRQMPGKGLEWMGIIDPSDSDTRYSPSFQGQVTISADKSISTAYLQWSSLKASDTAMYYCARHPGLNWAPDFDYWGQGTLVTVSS VL: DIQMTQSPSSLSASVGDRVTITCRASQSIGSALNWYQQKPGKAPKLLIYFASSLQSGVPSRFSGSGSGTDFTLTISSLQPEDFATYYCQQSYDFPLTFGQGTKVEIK
237

Also check IFWM3385 (antibody, IgG1, V domains shown) VH: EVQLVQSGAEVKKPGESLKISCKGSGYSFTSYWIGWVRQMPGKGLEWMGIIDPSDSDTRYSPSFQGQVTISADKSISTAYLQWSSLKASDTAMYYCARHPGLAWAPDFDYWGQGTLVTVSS VL: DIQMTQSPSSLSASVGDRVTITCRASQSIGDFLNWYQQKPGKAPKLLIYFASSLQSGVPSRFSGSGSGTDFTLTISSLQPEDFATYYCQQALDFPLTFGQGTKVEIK
839

More entries:
Need IC50 (pM), ISRE assay, item IFWM3332 (antibody, IgG1, V domains shown) VH: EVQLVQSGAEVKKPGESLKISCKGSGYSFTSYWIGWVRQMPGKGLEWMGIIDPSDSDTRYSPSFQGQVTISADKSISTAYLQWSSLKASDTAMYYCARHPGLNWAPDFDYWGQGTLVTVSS VL: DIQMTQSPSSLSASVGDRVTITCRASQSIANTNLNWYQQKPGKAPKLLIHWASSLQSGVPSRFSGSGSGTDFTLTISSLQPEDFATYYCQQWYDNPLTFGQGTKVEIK
947

Also check IFWM3416 (antibody, IgG1, V domains shown) VH: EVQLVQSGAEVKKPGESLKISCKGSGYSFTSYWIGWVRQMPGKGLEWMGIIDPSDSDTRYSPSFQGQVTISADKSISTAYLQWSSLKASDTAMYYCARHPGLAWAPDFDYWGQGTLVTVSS VL: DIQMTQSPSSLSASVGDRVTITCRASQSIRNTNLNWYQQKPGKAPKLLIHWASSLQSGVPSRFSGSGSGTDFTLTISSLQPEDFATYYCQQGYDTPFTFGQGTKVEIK
779

Also check IFWM3307 (antibody, IgG1, V domains shown) VH: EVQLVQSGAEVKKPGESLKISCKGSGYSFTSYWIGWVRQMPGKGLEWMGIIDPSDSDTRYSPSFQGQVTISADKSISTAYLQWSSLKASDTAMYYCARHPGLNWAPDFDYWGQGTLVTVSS VL: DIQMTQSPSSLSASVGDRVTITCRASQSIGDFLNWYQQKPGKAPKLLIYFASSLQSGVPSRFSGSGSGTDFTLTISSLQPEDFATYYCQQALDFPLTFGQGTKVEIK
600

Taken from patent US20150368338A1.
